# tgt: 5'-AMP-activated protein kinase catalytic subunit alpha-2 (Homo sapiens) (UniProt P54646)
# Sequence (P54646 whole entry, looked up): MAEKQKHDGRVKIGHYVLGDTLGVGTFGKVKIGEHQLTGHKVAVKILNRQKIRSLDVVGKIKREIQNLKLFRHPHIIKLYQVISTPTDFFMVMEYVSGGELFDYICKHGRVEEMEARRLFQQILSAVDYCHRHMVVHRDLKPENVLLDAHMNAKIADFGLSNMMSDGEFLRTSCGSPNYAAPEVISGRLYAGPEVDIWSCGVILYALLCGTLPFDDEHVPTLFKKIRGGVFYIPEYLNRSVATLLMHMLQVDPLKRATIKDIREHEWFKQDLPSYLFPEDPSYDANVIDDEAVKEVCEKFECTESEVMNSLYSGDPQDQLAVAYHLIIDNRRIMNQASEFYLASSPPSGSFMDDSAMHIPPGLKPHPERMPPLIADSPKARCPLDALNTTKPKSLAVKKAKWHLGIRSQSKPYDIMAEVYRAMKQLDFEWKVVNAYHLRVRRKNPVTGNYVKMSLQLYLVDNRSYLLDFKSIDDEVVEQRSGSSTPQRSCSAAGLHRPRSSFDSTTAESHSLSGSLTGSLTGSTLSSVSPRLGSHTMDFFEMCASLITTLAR
# experimental conditions: at 0.1 µM;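 further: mean inhibition measured on the AMPK complex of alpha2, beta1 and gamma1 subunits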
# Description: GSK_PKIS: AMPKA2 (A2B1G1) mean inhibition at 0.1 uM [Nanosyn]
The reader will find reported inhibition values listed item by item below.
// return numeric value only (unit: %, not printed)

# annotated cases, reported inhibition shown
FC(F)(F)CNc1nccc(-c2cnn3ncccc23)n1 | 0.68
COc1ccc2ncn(-c3cc(O[C@H](C)c4ccccc4C(F)(F)F)c(C(N)=O)s3)c2c1 | 0.8
CN(C)CCNC(=O)Nc1ccc(N(C)c2ccnc(Nc3ccc(CS(C)(=O)=O)cc3)n2)cc1 | 2.24
Cc1c2ccc(N(C)c3ccnc(Nc4cccc(S(N)(=O)=O)c4)n3)cc2nn1C | 3.67
COc1cc(N2CCN(C(C)C)CC2)ccc1Nc1nc(Nc2cccc3ncccc23)c2cc[nH]c2n1 | 0.57
COc1ccc(Nc2ncc(-c3ccccc3)o2)cc1OC | -0.43
CCN1CCC(C(=O)Nc2n[nH]c3nnc(-c4cccc(F)c4F)cc23)CC1 | 1.01
COc1cc(Nc2ncc(-c3ccccc3)o2)cc(OC)c1 | 2.86

Form field inhibition, entry "COc1ccc(-c2nn3ncccc3c2-c2ccnc(Nc3ccc(F)c(F)c3)n2)cc1" : 2.91

Form field inhibition, entry "COc1cc(N2CCN(C(C)C)CC2)ccc1Nc1nc(Nc2cccc(F)c2C(=O)O)c2cc[nH]c2n1" : 0.48

Form field inhibition, entry "N#Cc1cccc(Nc2ncc(-c3ccccc3)o2)c1" : -0.83

Form field inhibition, entry "COc1ccccc1-c1cc(/C=C2\C(=O)Nc3ncc(Br)cc32)cc(Br)c1O" : 5.58
